Measured melting point, listed per entry.

// known answers, use as guide
[[record]]
molecule_smiles = "Cc1ccc(C(C)C)c(NC(=S)NN)c1"
value = "167 to 169 °C"

[[record]]
molecule_smiles = "Cc1cccc(NC(=S)N/N=C/c2ccc(-c3ncn(-c4ccc(OC(F)(F)F)cc4)n3)cc2)c1C(C)C"
value = "219 to 222 °C"

[[record]]
molecule_smiles = "CC(C)c1cc(F)ccc1NC(=S)NN"
value = "163 to 167 °C"


Field request: melting point | item: "FC(F)(F)Oc1ccc(-n2cnc(-c3ccc(/C=N/NC(=S)Nc4ccccc4C4CCCC4)cc3)n2)cc1" 213 to 216 °C

What value of melting point has been reported for the following compound? "CC(C)c1cc(F)c(F)cc1NC(=S)NN" 169 to 170 °C

Need melting point of "CC(C)c1cc(F)c(F)cc1NC(=S)N/N=C/c1ccc(-c2ncn(-c3ccc(OC(F)(F)F)cc3)n2)cc1" , thanks. 217 to 221 °C
